Target: Indoleamine 2,3-dioxygenase 1 (Homo sapiens, UniProt P14902)
Sequence (P14902 whole entry, looked up): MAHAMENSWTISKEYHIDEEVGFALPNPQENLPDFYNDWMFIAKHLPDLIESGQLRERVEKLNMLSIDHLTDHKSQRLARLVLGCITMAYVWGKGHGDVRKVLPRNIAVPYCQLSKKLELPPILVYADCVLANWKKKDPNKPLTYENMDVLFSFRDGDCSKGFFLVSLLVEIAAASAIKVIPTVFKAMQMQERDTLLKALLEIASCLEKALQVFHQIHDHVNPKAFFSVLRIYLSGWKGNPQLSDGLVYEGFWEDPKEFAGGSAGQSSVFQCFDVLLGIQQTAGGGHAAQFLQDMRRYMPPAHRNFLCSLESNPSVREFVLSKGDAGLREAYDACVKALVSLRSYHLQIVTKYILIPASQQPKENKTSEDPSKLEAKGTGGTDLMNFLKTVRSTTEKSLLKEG
Assay: Inhibition of human recombinant IDO1 assessed as reduction in kynurenine production at 1 uM using L-tryptophan incubated for 60 mins by Ehrlich's reagent based assay
# cutoff 50% applies to inhibition; >= gives True, < gives False

Q: Test whether the compound CN(CC(=O)NCc1cnc2scc(-c3ccc(Br)cc3)n12)C(=O)Cc1cccc(C#N)c1 records inhibition of 50% or higher.
Ans: False

Q: Textbook exercise: given the entry O=C(COC(=O)Cc1cccc(O)c1)NCc1cnc2scc(-c3ccc(Br)cc3)n12 , state whether its inhibition is greater than or equal to 50%.
Ans: True

Q: Kindly determine if inhibition recorded for CN(CC(=O)NCc1cnc2scc(-c3ccc(Br)cc3)n12)C(=O)Cc1cccc([N+](=O)[O-])c1 is above or exactly 50%.
Ans: True

Q: Is it the case that O=C(COC(=O)Cc1cccc(Cl)c1)NCc1cnc2scc(-c3ccc(Br)cc3)n12 has inhibition reaching or exceeding 50%?
Ans: False

Q: Reported inhibition at or above 50%? CN(CC(=O)NCc1cnc2scc(-c3ccc(Br)cc3)n12)C(=O)c1ccc([N+](=O)[O-])cc1
Ans: False

Q: Determine whether measured inhibition meets or exceeds 50% for O=C(COC(=O)Cc1ccccc1Cl)NCc1cnc2scc(-c3ccc(Br)cc3)n12
Ans: False

Q: Answer whether inhibition of O=C(COC(=O)Cc1ccc(O)c(O)c1)NCc1cnc2scc(-c3ccc(Br)cc3)n12 is greater than or equal to 50%.
Ans: False

Q: # bool: inhibition of O=C(CNC(=O)Cc1ccccc1)NCc1cnc2scc(-c3ccc(Br)cc3)n12 >= 50%
Ans: False

Q: Is reported inhibition greater than or equal to 50% here: CN(CC(=O)NCc1cnc2scc(-c3ccc(Br)cc3)n12)C(=O)Cc1ccc(C#N)cc1
Ans: False

Q: Please indicate if the recorded inhibition for O=C(COC(=O)Cc1ccccc1O)NCc1cnc2scc(-c3ccc(Br)cc3)n12 meets or exceeds 50%.
Ans: True

Q: I'd appreciate it if you could say whether O=C(COC(=O)Cc1ccc(O)cc1)NCc1cnc2scc(-c3ccc(Br)cc3)n12 has inhibition at least equal to 50%.
Ans: True

Q: Please tell me: is the compound N#Cc1ccc(CC(=O)OCC(=O)NCc2cnc3scc(-c4ccc(Br)cc4)n23)cc1 at or over 50% in terms of inhibition?
Ans: True

Q: Does the compound CN(CC(=O)NCc1cnc2scc(-c3ccc(Br)cc3)n12)C(=O)c1ccc(C#N)cc1 have recorded inhibition that is 50% or more?
Ans: False

Q: API: above_or_equal(metric=inhibition, cutoff=50%) for item CN(CC(=O)NCc1cnc2scc(-c3ccc(Br)cc3)n12)C(=O)Cc1ccccc1O
Ans: False

Q: Does inhibition meet or surpass 50% for N#Cc1ccc(NC(=O)NCc2cnc3scc(-c4ccc(Br)cc4)n23)cc1 ?
Ans: True

Q: Given the entry CN(CC(=O)NCc1cnc2scc(-c3ccc(Br)cc3)n12)C(=O)Cc1cccc(Cl)c1 , answer whether its inhibition meets or surpasses 50%.
Ans: False

Q: Is inhibition for O=C(COC(=O)Cc1ccccc1[N+](=O)[O-])NCc1cnc2scc(-c3ccc(Br)cc3)n12 at or above 50%?
Ans: False

Q: In plain terms: is recorded inhibition at least 50% for CN(CC(=O)NCc1cnc2scc(-c3ccc(Br)cc3)n12)C(=O)Cc1ccc([N+](=O)[O-])cc1 ?
Ans: True
